System: A-375
Assay: Antiproliferative activity against human A375 cells assessed as reduction in cell viability incubated for 72 hrs by trypan blue or crystal violet staining based assay
Type: functional
Conditions: Homo sapiens, A-375, 72 h; read-out: IC50
quantityName: log10(IC50) (log10 of the value in µM)
Scale: log10; quantity: IC50; unit before log: µM

[ask] Report value only: log10(IC50), A-375, CCOC(=O)c1c(-c2ccccc2)csc1NC(NC(=O)c1cccc(Cl)c1)C(Cl)(Cl)Cl (stereo not given)
[reply] 0.79

[ask] Report value only: log10(IC50), A-375, CCOC(=O)c1c(-c2ccccc2)csc1NC(NC(C)=O)C(Cl)(Cl)Cl (stereo not given)
[reply] 0.71

[ask] Report value only: log10(IC50), A-375, O=C(NC1CCCc2ccccc21)c1cnn2c(C(F)(F)F)cc(-c3cccs3)nc12 (stereo not given)
[reply] 0.08

[ask] Report value only: log10(IC50), A-375, COc1cc(OC)c2c(=O)c(-c3ccc(OCC=C(C)C)c(OCC=C(C)C)c3)coc2c1
[reply] -0.40

[ask] Report value only: log10(IC50), A-375, CCOC(=O)c1c(-c2ccccc2)csc1NC(NC(=O)CC)C(Cl)(Cl)Cl (stereo not given)
[reply] 0.61

Entry source: ChEMBL document CHEMBL4613300
